test system: HCV 2b; assay: HCV replicon assay, genotype 2b; type: cell-based, Hepatitis C virus; settings: Hepatitis C virus, read-out: 2b IC50 (nM), HCV genotype 2b
OBSERVATION TYPE: IC50 (nM)

>>> result_value("COC(=O)N[C@H](C(=O)N1CCC[C@H]1c1ncc(-c2ccc3c(c2)Oc2ccc4cc(-c5cnc([C@@H]6CCCN6C(=O)[C@@H](NC(=O)OC)C6CCOCC6)[nH]5)ccc4c2C3(C)C)[nH]1)C1CCOCC1")
0.254
>>> result_value("CCC1(CC)c2ccc(-c3cnc([C@@H]4CCCN4C(=O)[C@H](NC(=O)OC)C4CCOCC4)[nH]3)cc2Oc2cc3ccc(-c4cnc([C@@H]5CCCN5C(=O)[C@@H](NC(=O)OC)C5CCOCC5)[nH]4)cc3cc21")
0.028

###

test system: HCV 2b; experiment: HCV replicon assay, genotype 2b; format: cell-based, Hepatitis C virus; conditions: Hepatitis C virus, read-out: 2b IC50 (nM), HCV genotype 2b
Listed below: IC50 values for each entry.
OBSERVATION TYPE: IC50 (nM)

>>> result_value("COC(=O)N[C@H](C(=O)N1CCC[C@H]1c1ncc(-c2ccc3c(ccc4oc5cc(-c6cnc([C@@H]7CCCN7C(=O)[C@@H](NC(=O)OC)C7CCOCC7)[nH]6)ccc5c(=O)c43)c2)[nH]1)C1CCOCC1")
0.481
>>> result_value("CCC1(CC)c2ccc(-c3cnc([C@@H]4CCCN4C(=O)[C@H](NC(=O)OC)C(C)C)[nH]3)cc2Oc2ccc3cc(-c4cnc([C@@H]5CCCN5C(=O)[C@@H](NC(=O)OC)C(C)C)[nH]4)ccc3c21")
3.33
>>> result_value("CC(C)(C)NC(=O)N1CC(F)C[C@H]1c1ncc(-c2ccc3c(ccc4oc5cc(-c6cnc([C@@H]7C[C@@H](F)CN7C(=O)NC(C)(C)C)[nH]6)ccc5c(=O)c43)c2)[nH]1 (stereo in doubt)")
505

###

The compounds listed here are annotated with their IC50.
tested on: HCV 1aY93H mutant replicon; test: HCV replicon assay, genotype 1a Y93H mutant; assay type: cell-based, Hepatitis C virus; details: Hepatitis C virus, read-out: 1aY93H IC50 (nM), HCV genotype 1a, Y93H mutant
OBSERVATION TYPE: IC50 (nM)

>>> result_value("COC(=O)N[C@H](C(=O)N1C[C@H](F)C[C@H]1c1ncc(-c2ccc3c(ccc4oc5cc(-c6cnc([C@@H]7C[C@@H](F)CN7C(=O)[C@@H](NC(=O)OC)C(C)C)[nH]6)ccc5c(=O)c43)c2)[nH]1)C(C)C")
1.18
>>> result_value("CCC1(CC)c2ccc(-c3cnc([C@@H]4CCCN4C(=O)[C@H](NC(=O)OC)C(C)C)[nH]3)cc2Oc2ccc3cc(-c4cnc([C@@H]5CCCN5C(=O)[C@@H](NC(=O)OC)C(C)C)[nH]4)ccc3c21")
4.1
>>> result_value("O=c1c2ccc(-c3cnc([C@@H]4CC(F)CN4)[nH]3)cc2oc2ccc3cc(-c4cnc([C@@H]5C[C@@H](F)CN5)[nH]4)ccc3c12 (stereo in doubt)")
147
>>> result_value("COC(=O)N[C@H](C(=O)N1C[C@H](F)C[C@H]1c1ncc(-c2ccc3c(ccc4oc5ccc(-c6cnc([C@@H]7C[C@@H](F)CN7C(=O)[C@@H](NC(=O)OC)C(C)C)[nH]6)cc5c(=O)c43)c2)[nH]1)C(C)C")
96.6
>>> result_value("CC(C)(C)NC(=O)N1CC(F)C[C@H]1c1ncc(-c2ccc3c(F)c4oc5ccc(-c6cnc([C@@H]7CC(F)CN7C(=O)NC(C)(C)C)[nH]6)cc5c(=O)c4cc3c2)[nH]1 (stereo in doubt)")
436
>>> result_value("COC(=O)N[C@H](C(=O)N1CCC[C@H]1c1ncc(-c2ccc3c(ccc4oc5cc(-c6cnc([C@@H]7CCCN7C(=O)[C@@H](NC(=O)OC)C7CCOCC7)[nH]6)ccc5c(=O)c43)c2)[nH]1)C1CCOCC1")
2.03
>>> result_value("COC(=O)N[C@H](C(=O)N1CCC[C@H]1c1ncc(-c2ccc3c(c2)Oc2ccc4cc(-c5cnc([C@@H]6CCCN6C(=O)[C@@H](NC(=O)OC)C6CCOCC6)[nH]5)ccc4c2C3(C)C)[nH]1)C1CCOCC1")
0.682
>>> result_value("CCC1(CC)c2ccc(-c3cnc([C@@H]4CCCN4C(=O)[C@H](NC(=O)OC)C4CCOCC4)[nH]3)cc2Oc2cc3ccc(-c4cnc([C@@H]5CCCN5C(=O)[C@@H](NC(=O)OC)C5CCOCC5)[nH]4)cc3cc21")
0.046
>>> result_value("CCN(CC)[C@@H](C(=O)N1C[C@H](F)C[C@H]1c1ncc(-c2ccc3c(ccc4oc5cc(-c6cnc([C@@H]7C[C@@H](F)CN7C(=O)[C@@H](c7ccccc7)N(CC)CC)[nH]6)ccc5c(=O)c43)c2)[nH]1)c1ccccc1")
506
>>> result_value("COC(=O)N[C@H](C(=O)N1CCC[C@@H]1c1ncc(-c2ccc3oc4c(ccc5cc(-c6cnc([C@H]7CCCN7C(=O)[C@H](NC(=O)OC)C(C)C)[nH]6)ccc54)c(=O)c3c2)[nH]1)C(C)C")
66
>>> result_value("COC(=O)N[C@H](C(=O)N1CCC[C@H]1c1ncc(-c2ccc3c(ccc4oc5cc(-c6cnc([C@@H]7CCCN7C(=O)[C@@H](NC(=O)OC)C(C)C)[nH]6)ccc5c(=O)c43)c2)[nH]1)C(C)C")
18.4
>>> result_value("O=c1c2cc(-c3cnc([C@@H]4CC(F)CN4)[nH]3)ccc2oc2c(F)c3ccc(-c4cnc([C@@H]5CC(F)CN5)[nH]4)cc3cc12 (stereo in doubt)")
1390
>>> result_value("COC(=O)N[C@H](C(=O)N1C[C@H](F)C[C@H]1c1ncc(-c2ccc3c(ccc4oc5cc(-c6cnc([C@@H]7C[C@@H](F)CN7C(=O)[C@@H](NC(=O)OC)C7CCOCC7)[nH]6)ccc5c(=O)c43)c2)[nH]1)C1CCOCC1")
0.18
>>> result_value("CC(C)(C)OC(=O)N1CC(F)C[C@H]1c1ncc(-c2ccc3c(ccc4oc5cc(-c6cnc([C@@H]7C[C@@H](F)CN7C(=O)OC(C)(C)C)[nH]6)ccc5c(=O)c43)c2)[nH]1 (stereo in doubt)")
717
>>> result_value("COC(=O)N[C@H](C(=O)N1CCC[C@H]1c1ncc(-c2ccc3c(c2)C(C)c2ccc4cc(-c5cnc([C@@H]6CCCN6C(=O)[C@@H](NC(=O)OC)C(C)C)[nH]5)ccc4c2O3)[nH]1)C(C)C (some centres unmarked)")
48.8
